# ASSAY METHOD TEXT: Inhibition of porcine brain tubulin polymerization by fluorescence based assay
# Assay type: cell-based, Sus scrofa domesticus, 1-87 tumor cell line
pIC50: −log10 of the molar value.
Entries annotated with measured pIC50
READOUT TYPE: pIC50

CHEMICAL SMILES	READOUT VALUE
COc1ccc2c(Nc3cc(OC)c(OC)c(OC)c3)n[nH]c2c1	5.32
COc1cc(Nc2n[nH]c3cc(C)ccc23)cc(OC)c1OC	5.47

---

# ASSAY METHOD TEXT: Cytotoxicity against HUVEC assessed as cell viability after 72 hrs by MTT assay
# Format: cell-based
# ASSAY SETUP: human, HUVEC cells
READOUT TYPE: GI50 at 72 h

CHEMICAL SMILES	READOUT TYPE	READOUT VALUE
COc1ccc2c(Nc3cc(OC)c(OC)c(OC)c3)n[nH]c2c1	GI50 at 72 h	> 25 µM
COc1cc(Nc2n[nH]c3cc(C)ccc23)cc(OC)c1OC	GI50 at 72 h	> 25 µM

---

# Tested on: HepG2
# ASSAY METHOD TEXT: Antiproliferative activity against human HepG2 cells assessed as cell viability after 72 hrs by MTT assay
# Assay type: functional
Entries annotated with measured log10 of GI50
READOUT TYPE: log10 of GI50 (log10 of the value in µM)

COMPOUND	TARGET OF ASSAY	log10 of GI50
COc1ccc2c(Nc3cc(OC)c(OC)c(OC)c3)n[nH]c2c1	HepG2	-1.28
COc1cc(Nc2n[nH]c3cccc(C)c23)cc(OC)c1OC	HepG2	1.00
COc1cc(Nc2n[nH]c3ccccc23)cc(OC)c1OC	HepG2	1.38
COc1cc(Nc2n[nH]c3cc(F)ccc23)cc(OC)c1OC	HepG2	1.20
COc1ccc(/C=C\c2cc(OC)c(OC)c(OC)c2)cc1O [COMBRETASTATIN A4]	HepG2	-2.70
COc1cc(Nc2n[nH]c3cc(C)ccc23)cc(OC)c1	HepG2	-0.70
COc1cc(Nc2n[nH]c3c(C)cccc23)cc(OC)c1OC	HepG2	0.73
COc1cc(Nc2n[nH]c3ccc(C)cc23)cc(OC)c1OC	HepG2	0.60
COc1ccc(Nc2n[nH]c3cc(C)ccc23)cc1OC	HepG2	-0.20
COc1cc(Nc2n[nH]c3cc(C)ccc23)cc(OC)c1OC	HepG2	-1.57
COc1cc(Nc2n[nH]c3cc(OC)ccc23)cc(OC)c1	HepG2	-0.11
